# assay-target: T1, PUF4 RNA-binding domain (Saccharomyces cerevisiae, UniProt P25339 537-888)
# T1 sequence: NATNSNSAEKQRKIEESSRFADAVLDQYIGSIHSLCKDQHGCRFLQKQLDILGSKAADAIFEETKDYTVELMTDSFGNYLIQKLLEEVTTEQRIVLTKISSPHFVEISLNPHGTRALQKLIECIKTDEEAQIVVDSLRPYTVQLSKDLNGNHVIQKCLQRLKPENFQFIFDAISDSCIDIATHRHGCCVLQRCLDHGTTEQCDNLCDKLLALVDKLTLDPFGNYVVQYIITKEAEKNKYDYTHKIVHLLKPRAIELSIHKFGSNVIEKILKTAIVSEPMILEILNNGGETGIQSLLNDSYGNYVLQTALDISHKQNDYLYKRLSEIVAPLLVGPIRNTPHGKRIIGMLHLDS
# test-method-notes: Mg; RNA-MaP; 20 mM Na-HEPES pH 7.4, 30 mM KOAc, 0.75 mM MgCl2, 0.1% Tween-20, 5% glycerol, 0.1 mg/mL BSA, 2 mM DTT; 25 C; 0.0125-409.6 nM protein
# study-conditions: tags: N-His6-TEV cleaved; C-SNAP kept, Cy3B-labelled; label: tethered on chip by stalled RNA polymerase
// reported Kd per item
property-measured: Kd (nM)

INSERT INTO measurements (binder, unit, numeric_value) VALUES
  ('Id_ii_S2_P5E.4_K5.3_C5.2_[C-2A]_H5.3_A5.1_F5.1_T5.2_[T11C] (ssRNA) RNA: UUUGAUUAAUAUGAUAUCGUUCUUUCUAUACACUUAUUACAUUCUUUCUCGAUAUCAUAUUAAUCUUU', 'nM', 136),
  ('Id_ii_S4_P4E.2_K4.1_C4.2_[C-2G]_[T-1C]_H4.1_A4.1_F4.1_T4.2_[G10C]_[T11C] (ssRNA) RNA: UUUGACAACUGAUCGUUCUUUCUGCUGUAUAUUACCUUCUUUCUCGAUCAGUUGUCUUU', 'nM', 1.35),
  ('ACAAACUCCUAUAUAUAUAACAAAC (ssRNA) [Id_iii_S3_P3E.6_K3.2_C3.3_[T-1C]_H3.2_A3.1_F3.1_T3.2]', 'nM', 218),
  ('Ib_S4_P5E.1_K5.1_C5.1_H5.1_[T3G]_[A4T]_A5.1_F5.1_T5.1 (ssRNA) RNA: UUUGACAACUGAUCGUUCUUUCUUGGUUUAUUAUUCUUUCUCGAUCAGUUGUCUUU', 'nM', 745),
  ('Ie_S2_P5E.1_K5.1_C5.1_H5.1_[+4TT]_A5.1_F5.1_T5.1 (ssRNA) RNA: UUUGAUUAAUAUGAUAUCGUUCUUUCUUGUAUUUUAUUAUUCUUUCUCGAUAUCAUAUUAAUCUUU', 'nM', 1.57),
  ('ACAAACGGUAUAUAUUAAGACAAAC (ssRNA) [Id_ii_S3_P4E.3_K4.2_C4.2_[C-2G]_[T-1G]_H4.2_A4.1_F4.1_T4.2_[G10A]_[T11G]]', 'nM', 48.8);
